Target: Myo3, P36006
Experiment: SPOT array
Settings: median of control spots 468
test readout: SPOT intensity

LLIRWLILMPLVGSR 34
PSPSSSPPPIPKTAN 413
AKDLIVPRRPEWNEG 461

P. MTKTPETSPPKRPMG
Q. SNRRPVPRRPSQPLN
R. NMLKKKPLKKPLKRF
In: Sort low-to-high on SPOT intensity, please. Reply format: the labels, ordered as requested.
Out: Q, R, P
(Q: 3, R: 24, P: 455)

Data origin, for the record: paper PMC2756588
